system-name: anti-cotinine antibody (SEQ ID NO: 11/12, rabbit variable region with human IgG1 Fc DE mutation)
test-name: SPR binding of anti-cotinine antibody to ARM compounds, Biacore T200, 37° C. (Example 202)
condition-parameters: SPR Biacore T200, 37° C., pH 7.4, antibody SEQ ID NO: 11/12 captured on protein A; Kd in molar
Exercise: for every item that follows, state its recorded pKd of Antibody for ARM Compound of Formula (I).
Enter a number only.

Input line: Record request: pKd of Antibody for ARM Compound of Formula (I) value, item `CC(C)N(C)[C@@H]1CC[C@H](N2CC[C@H](Nc3ncnc4ccc(C(F)(F)F)cc34)C2=O)[C@H](NC(=O)CNC(=O)[C@H]2CC[C@@H](NC(=O)CCOCCOCCNC(=O)[C@H]3CC(=O)N(C)[C@@H]3c3cccnc3)CC2)C1`
Output line: 9.336

Input line: Record request: pKd of Antibody for ARM Compound of Formula (I) value, item `CC(C)N(C)[C@@H]1CC[C@H](N2CC[C@H](Nc3ncnc4ccc(C(F)(F)F)cc34)C2=O)[C@H](NC(=O)CCOCCOCCNC(=O)CCOCCOCCNC(=O)[C@H]2CC(=O)N(C)[C@@H]2c2cccnc2)C1`
Output line: 9.1155

Input line: Record request: pKd of Antibody for ARM Compound of Formula (I) value, item `CN1C(=O)C[C@H](C(=O)NCCOCCOCCOCCOCCOCCC(=O)N[C@@H]2C[C@H](NC(C)(C)C)CC[C@@H]2N2CC[C@H](Nc3ncnc4ccc(C(F)(F)F)cc34)C2=O)[C@H]1c1cccnc1`
Output line: 9.7475

Input line: Record request: pKd of Antibody for ARM Compound of Formula (I) value, item `CC(C)N(C)[C@@H]1CC[C@H](N2CC[C@H](Nc3ncnc4ccc(C(F)(F)F)cc34)C2=O)[C@H](NC(=O)CCCN2CCC3(CCN(CCCNC(=O)[C@H]4CC(=O)N(C)[C@@H]4c4cccnc4)CC3)CC2)C1`
Output line: 9.68

Input line: Record request: pKd of Antibody for ARM Compound of Formula (I) value, item `CC(C)N(C)[C@@H]1CC[C@H](N2CC[C@H](Nc3ncnc4ccc(C(F)(F)F)cc34)C2=O)[C@H](NC(=O)[C@H]2CC[C@H](NC(=O)CCCO[C@H]3CC[C@@H](OCCNC(=O)[C@H]4CC(=O)N(C)[C@@H]4c4cccnc4)CC3)CC2)C1`
Output line: 9.526

Input line: Record request: pKd of Antibody for ARM Compound of Formula (I) value, item `CC(C)N(C)[C@@H]1CC[C@H](N2CC[C@H](Nc3ncnc4ccc(C(F)(F)F)cc34)C2=O)[C@H](NC(=O)[C@H]2C[C@H](NC(=O)CCOC[C@H]3CC[C@H](COCCNC(=O)[C@H]4CC(=O)N(C)[C@@H]4c4cccnc4)CC3)C2)C1`
Output line: 9.5515

Input line: Record request: pKd of Antibody for ARM Compound of Formula (I) value, item `CC(C)N(C)[C@@H]1CC[C@H](N2CC[C@H](Nc3ncnc4ccc(C(F)(F)F)cc34)C2=O)[C@H](NC(=O)[C@H]2C[C@@H](NC(=O)CCOC[C@H]3CC[C@H](COCCNC(=O)[C@H]4CC(=O)N(C)[C@@H]4c4cccnc4)CC3)C2)C1`
Output line: 9.4085

Input line: Record request: pKd of Antibody for ARM Compound of Formula (I) value, item `CC(C)N(C)[C@@H]1CC[C@H](N2CC[C@H](Nc3ncnc4ccc(C(F)(F)F)cc34)C2=O)[C@H](NC(=O)[C@H]2CC[C@@H](NC(=O)CCOCCNC(=O)COCCNC(=O)[C@H]3CC(=O)N(C)[C@@H]3c3cccnc3)CC2)C1`
Output line: 9.0095

Input line: Record request: pKd of Antibody for ARM Compound of Formula (I) value, item `CC(C)N(C)[C@@H]1CC[C@H](N2CC[C@H](Nc3ncnc4ccc(C(F)(F)F)cc34)C2=O)[C@H](NC(=O)COCCNC(=O)CCOCCOCCNC(=O)CCNC(=O)[C@H]2CC(=O)N(C)[C@@H]2c2cccnc2)C1`
Output line: 9.1485

Input line: Record request: pKd of Antibody for ARM Compound of Formula (I) value, item `CC(C)N(C)[C@@H]1CC[C@H](N2CC[C@H](Nc3ncnc4ccc(C(F)(F)F)cc34)C2=O)[C@H](NC(=O)[C@H]2CC[C@@H](NC(=O)CCCC(=O)NCCCC(=O)NCCCNC(=O)[C@H]3CC(=O)N(C)[C@@H]3c3cccnc3)CC2)C1`
Output line: 9.3185

Input line: Record request: pKd of Antibody for ARM Compound of Formula (I) value, item `CC(C)N(C)[C@@H]1CC[C@H](N2CC[C@H](Nc3ncnc4ccc(C(F)(F)F)cc34)C2=O)[C@H](NC(=O)CCOCCNC(=O)CCOCCNC(=O)CCOCCNC(=O)[C@H]2CC(=O)N(C)[C@@H]2c2cccnc2)C1`
Output line: 9.074

Input line: Record request: pKd of Antibody for ARM Compound of Formula (I) value, item `CC(C)N(C)[C@@H]1CC[C@H](N2CC[C@H](Nc3ncnc4ccc(C(F)(F)F)cc34)C2=O)[C@H](NC(=O)[C@H]2C[C@@H](NC(=O)CCOCCOCCOCCNC(=O)[C@H]3CC(=O)N(C)[C@@H]3c3cccnc3)C2)C1`
Output line: 9.4425

Input line: Record request: pKd of Antibody for ARM Compound of Formula (I) value, item `CC(C)N(C)[C@@H]1CC[C@H](N2CC[C@H](Nc3ncnc4ccc(C(F)(F)F)cc34)C2=O)[C@H](NC(=O)[C@H]2CC[C@H](NC(=O)CCOC[C@H]3CC[C@H](COCCNC(=O)[C@H]4CC(=O)N(C)[C@@H]4c4cccnc4)CC3)CC2)C1`
Output line: 9.531

Input line: Record request: pKd of Antibody for ARM Compound of Formula (I) value, item `CC(C)N(C)[C@@H]1CC[C@H](N2CC[C@H](Nc3ncnc4ccc(C(F)(F)F)cc34)C2=O)[C@H](NC(=O)[C@H]2CC[C@H](NC(=O)CCO[C@H]3CC[C@H](OCCNC(=O)[C@H]4CC(=O)N(C)[C@@H]4c4cccnc4)CC3)CC2)C1`
Output line: 9.767

Input line: Record request: pKd of Antibody for ARM Compound of Formula (I) value, item `CC(C)N(C)[C@@H]1CC[C@H](N2CC[C@H](Nc3ncnc4ccc(C(F)(F)F)cc34)C2=O)[C@H](NC(=O)CCOCCNC(=O)CCCO[C@H]2CC[C@H](OCCNC(=O)[C@H]3CC(=O)N(C)[C@@H]3c3cccnc3)CC2)C1`
Output line: 9.2515

Input line: Record request: pKd of Antibody for ARM Compound of Formula (I) value, item `CC(C)N(C)[C@@H]1CC[C@H](N2CC[C@H](Nc3ncnc4ccc(C(F)(F)F)cc34)C2=O)[C@H](NC(=O)COCCNC(=O)[C@H]2CC[C@@H](NC(=O)CCOCCNC(=O)[C@H]3CC(=O)N(C)[C@@H]3c3cccnc3)CC2)C1`
Output line: 8.951

====

Exercise: for every item that follows, state its recorded EC50.
System: endogenous target monocytes in human PBMC
test-name: PBMC ex vivo monocyte depletion flow cytometry assay (Example 200)
Format: cell-based
condition-parameters: with anti-cotinine antibody (SEQ ID NO: 11/12), 18-24 hours, EC50 in molar, read-out: Ex Vivo Depletion Assay pEC50 (converted)
Numeric only. Scale: nM

Input line: Record request: EC50 value, item `CC(C)N(C)[C@@H]1CC[C@H](N2CC[C@H](Nc3ncnc4ccc(C(F)(F)F)cc34)C2=O)[C@H](NC(=O)COCCNC(=O)CCNC(=O)CCOCCOCCNC(=O)[C@H]2CC(=O)N(C)[C@@H]2c2cccnc2)C1`
Output line: 0.398

Input line: Record request: EC50 value, item `CC(C)N(CCOCCOCCC(=O)N[C@H]1CC[C@@H](C(=O)N[C@@H]2C[C@H](N(C)C(C)C)CC[C@@H]2N2CC[C@H](Nc3ncnc4ccc(C(F)(F)F)cc34)C2=O)CC1)C(=O)CCNC(=O)[C@H]1CC(=O)N(C)[C@@H]1c1cccnc1`
Output line: 0.398

Input line: Record request: EC50 value, item `CC(C)N(C)[C@@H]1CC[C@H](N2CC[C@H](Nc3ncnc4ccc(C(F)(F)F)cc34)C2=O)[C@H](NC(=O)COCCNC(=O)CCOCCOCCNC(=O)CCNC(=O)[C@H]2CC(=O)N(C)[C@@H]2c2cccnc2)C1`
Output line: 0.126

Input line: Record request: EC50 value, item `CN1C(=O)C[C@H](C(=O)NCCOCC(=O)NCCOCC(=O)N[C@H]2CC[C@@H](C(=O)N[C@@H]3C[C@H](NC(C)(C)C)CC[C@@H]3N3CC[C@H](Nc4ncnc5ccc(C(F)(F)F)cc45)C3=O)CC2)[C@H]1c1cccnc1`
Output line: 1.26

Input line: Record request: EC50 value, item CC(C)N(C)[C@@H]1CC[C@H](N2CC[C@H](Nc3ncnc4ccc(C(F)(F)F)cc34)C2=O)[C@H](NC(=O)C2CCC(N3CC(C(=O)NCCOCCOCCNC(=O)[C@H]4CC(=O)N(C)[C@@H]4c4cccnc4)C3)CC2)C1 (stereo partly drawn)
Output line: 0.501

Input line: Record request: EC50 value, item `CCN1C(=O)C[C@H](C(=O)NCCOCCOCCOCCC(=O)N[C@H]2CC[C@@H](C(=O)N[C@@H]3C[C@H](N(C)C(C)C)CC[C@@H]3N3CC[C@H](Nc4ncnc5ccc(C(F)(F)F)cc45)C3=O)CC2)[C@H]1c1cccnc1`
Output line: 1.58

Input line: Record request: EC50 value, item `CC(C)N(C)[C@@H]1CC[C@H](N2CC[C@H](Nc3ncnc4ccc(C(F)(F)F)cc34)C2=O)[C@H](NC(=O)C2CCN(C3CCN(C(=O)CCOCCOCCNC(=O)[C@H]4CC(=O)N(C)[C@@H]4c4cccnc4)CC3)CC2)C1`
Output line: 2

Input line: Record request: EC50 value, item `CC(C)N(C)[C@@H]1CC[C@H](N2CC[C@H](Nc3ncnc4ccc(C(F)(F)F)cc34)C2=O)[C@H](NC(=O)CCCOCC23CCC(COCCNC(=O)[C@H]4CC(=O)N(C)[C@@H]4c4cccnc4)(CC2)CC3)C1`
Output line: 1.58

Input line: Record request: EC50 value, item `CC(C)N(C)[C@@H]1CC[C@H](N2CC[C@H](Nc3ncnc4ccc(C(F)(F)F)cc34)C2=O)[C@H](NC(=O)C2CCN(CCCCCCCCNC(=O)[C@H]3CC(=O)N(C)[C@@H]3c3cccnc3)CC2)C1`
Output line: 0.501
